# credit: patent US20160130278A1

Listing of recorded pIC50 by entry.
targetDesc: human type 1 glycine transporter (GlyT1) (Homo sapiens, UniProt P48067)
Construct: T98G cells (glioma cells) expressing human type 1 glycine transporter (GlyT1) were used
Sequence (P48067 1-706): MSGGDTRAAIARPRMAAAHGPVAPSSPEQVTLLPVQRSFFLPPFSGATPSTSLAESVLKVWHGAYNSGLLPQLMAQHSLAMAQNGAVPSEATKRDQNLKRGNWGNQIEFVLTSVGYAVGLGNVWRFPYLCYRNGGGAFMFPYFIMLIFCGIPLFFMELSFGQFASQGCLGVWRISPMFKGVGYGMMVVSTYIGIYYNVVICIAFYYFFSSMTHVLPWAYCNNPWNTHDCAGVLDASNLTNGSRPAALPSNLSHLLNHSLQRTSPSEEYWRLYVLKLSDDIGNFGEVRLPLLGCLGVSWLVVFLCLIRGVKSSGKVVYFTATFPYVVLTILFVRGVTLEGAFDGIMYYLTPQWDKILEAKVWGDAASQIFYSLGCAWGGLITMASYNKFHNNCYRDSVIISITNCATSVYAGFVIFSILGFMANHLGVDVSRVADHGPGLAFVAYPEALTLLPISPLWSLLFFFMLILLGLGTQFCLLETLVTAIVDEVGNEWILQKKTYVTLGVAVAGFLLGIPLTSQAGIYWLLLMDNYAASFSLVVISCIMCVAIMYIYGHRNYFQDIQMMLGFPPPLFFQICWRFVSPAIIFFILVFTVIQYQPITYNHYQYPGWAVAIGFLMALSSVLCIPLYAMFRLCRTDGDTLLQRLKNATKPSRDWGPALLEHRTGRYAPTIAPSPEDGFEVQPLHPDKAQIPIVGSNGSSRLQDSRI
testDescription: Glycine uptake inhibition experiment ([3H]glycine uptake)
Format: cell-based
experimentalParameters: GlyT1
pIC50: −log10 of the molar value.

>  <compound>
O=C(N[C@@H](c1cccc(Cl)c1)[C@]1(O)CC[C@@H](F)CC1)c1nccc(C(F)(F)F)c1Cl

>  <targetDesc>
human type 1 glycine transporter (GlyT1) (Homo sapiens, UniProt P48067)

>  <pIC50>
7.19

$$$$
>  <compound>
Cc1noc2nc(C3CC3)cc(C(=O)NC(c3cccc(F)c3Cl)[C@]3(O)CC[C@@H](F)CC3)c12 (single isomer, unassigned)

>  <targetDesc>
human type 1 glycine transporter (GlyT1) (Homo sapiens, UniProt P48067)

>  <pIC50>
6.00

$$$$
>  <compound>
O=C(NC(c1cccc(Cl)n1)[C@]1(O)CC[C@@H](F)CC1)c1nccc2ccccc12 (single isomer, unassigned)

>  <targetDesc>
human type 1 glycine transporter (GlyT1) (Homo sapiens, UniProt P48067)

>  <pIC50>
6.26

$$$$

* * *

targetDesc: human type 1 glycine transporter (GlyT1) (Homo sapiens)
Construct: T98G cells (glioma cells) expressing human type 1 glycine transporter (GlyT1) were used
testDescription: Glycine uptake inhibition experiment ([3H]glycine uptake)
Assay type: cell-based
experimentalParameters: GlyT1
pIC50: −log10 of the molar value.
Values of pIC50 greater than or equal to 6 map to T; values below map to F.

>  <compound>
O=C(NC(c1cccc(Cl)c1)C1(O)CCCC1)c1nccc(C(F)(F)F)c1Cl (single isomer, unassigned) [Compound 55]

>  <label>
F

$$$$
>  <compound>
O=C(NC(c1ccccc1Cl)C1(O)CCCC1)c1nccc(C(F)(F)F)c1Cl (stereo not shown) [Compound 44]

>  <label>
T

$$$$
>  <compound>
CCn1cc(-c2cccc(C(NC(=O)c3cc(Cl)ccc3C(F)(F)F)C3(O)CCC(F)(F)CC3)c2)cn1 (single isomer, unassigned) [Compound 218]

>  <label>
F

$$$$
>  <compound>
O=C(NC(c1ccccc1F)C1(O)CCCC1)c1nccc(C(F)(F)F)c1Cl (single isomer, unassigned) [Compound 60]

>  <label>
T

$$$$
>  <compound>
CCn1cc(-c2cccc(C(NC(=O)c3ccc(C(F)(F)F)nc3C)C3(O)CCC(F)(F)CC3)c2)cn1 (stereo not shown) [Compound 140]

>  <label>
F

$$$$
>  <compound>
O=C(NC(c1cccc(-n2ccnn2)c1)C1(O)CCCC1)c1nccc(C(F)(F)F)c1Cl (stereo not shown) [Compound 78]

>  <label>
T

$$$$
